test system: A549-TUBA1B-RELA; experiment: phenotypically active (imaging signature differs from DMSO and reproducible) at any of 0.3-9 uM (binary (1 = active, 0 = inactive)); higher = active; conditions: treatment time: 24 h
Structures can show the parent of a compound that is named as a salt.
READOUT_LABEL: phenotypically active

[[record]]
molecule = "CC(C)C(=O)SCCCCC[C@H](NC(=O)OC(C)(C)C)C(=O)NC12CC3CC(CC(C3)C1)C2"
readout_label = "phenotypically active"
value_observed = 0

[[record]]
molecule = "CC(=O)c1c(C)c2cnc(Nc3ccc(N4CCNCC4)cn3)nc2n(C2CCCC2)c1=O"
readout_label = "phenotypically active"
value_observed = 1

[[record]]
molecule = "C[C@@H]1O[C@@H](OC[C@H]2O[C@@H](Oc3c(-c4ccc(O)c(O)c4)oc4cc(O)cc(O)c4c3=O)[C@H](O)[C@@H](O)[C@@H]2O)[C@H](O)[C@H](O)[C@H]1O [Quercétine-3-rutinoside]"
readout_label = "phenotypically active"
value_observed = 0

[[record]]
molecule = "Fc1ccccc1Nc1nc2nonc2nc1Nc1ccccc1F"
readout_label = "phenotypically active"
value_observed = 1

[[record]]
molecule = "O=C(NOCC1CC1)c1ccc(F)c(F)c1Nc1ccc(I)cc1Cl"
readout_label = "phenotypically active"
value_observed = 1

[[record]]
molecule = "CCN(CCO)CCCC(C)Nc1ccnc2cc(Cl)ccc12 (stereo not drawn) [hydroxychloroquine]"
readout_label = "phenotypically active"
value_observed = 1

[[record]]
molecule = "CN(CCOc1ccc(NS(C)(=O)=O)cc1)CCc1ccc(NS(C)(=O)=O)cc1 [dofetilide]"
readout_label = "phenotypically active"
value_observed = 0

[[record]]
molecule = "CC1=C(C(=O)Nc2cc3cn[nH]c3cc2F)C(c2ccc(C(F)(F)F)cc2)CC(=O)N1 (stereo not drawn)"
readout_label = "phenotypically active"
value_observed = 1

[[record]]
molecule = "NC(=O)C(c1ccccc1)(c1ccccc1)[C@@H]1CCN(CCc2ccc3c(c2)CCO3)C1"
readout_label = "phenotypically active"
value_observed = 1

[[record]]
molecule = "CC(C)NCC(O)c1ccc(O)c(O)c1 (stereo not drawn) [Isoproterenol hydrochloride]"
readout_label = "phenotypically active"
value_observed = 0

[[record]]
molecule = "CC(=O)OCC(=O)[C@@]12OC3(CCCC3)O[C@@H]1C[C@H]1[C@@H]3CCC4=CC(=O)C=C[C@]4(C)[C@@]3(F)[C@@H](O)C[C@@]12C [amcinonide]"
readout_label = "phenotypically active"
value_observed = 1

[[record]]
molecule = "Cc1c(C(=O)N2CCOc3ccc(-c4ccc(N)nc4)cc3C2)ccc(S(C)(=O)=O)c1F"
readout_label = "phenotypically active"
value_observed = 1

[[record]]
molecule = "O=S(c1ccccc1)c1ccc2nnnn2n1 (stereo not drawn)"
readout_label = "phenotypically active"
value_observed = 0

[[record]]
molecule = "O=C(Nc1cccnc1)c1cc(-c2ccnc(F)c2)ccc1OCc1ccccc1"
readout_label = "phenotypically active"
value_observed = 0

[[record]]
molecule = "CCCOc1ccn2c(C(C)=O)cc(-c3ccccc3S(C)(=O)=O)c2c1"
readout_label = "phenotypically active"
value_observed = 0

[[record]]
molecule = "CN(C)CCOC(c1ccccc1)c1ccccc1 [diphenhydramine]"
readout_label = "phenotypically active"
value_observed = 0

[[record]]
molecule = "CC1(C)CC(=O)c2c(S(C)(=O)=O)sc(Cl)c2C1"
readout_label = "phenotypically active"
value_observed = 0

[[record]]
molecule = "Nc1ccc(-c2cccc3c(=O)cc(N4CCOCC4)oc23)cc1"
readout_label = "phenotypically active"
value_observed = 1

